The values you see were collected from paper PMC5540273.

Tested on: MYO3B
reported.conditions: concentration: 1 μM,replicates: in singlicate; n = 1;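 also: KINOMEscan kinase panel screen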
Reported %Inh values for the following molecules.
value.type: %Inh (%)

1. O=C(NCC1CC1)c1ccc(-c2cc(C(=O)NC3CC3)ccc2F)cc1 | 8
2. Cc1ccc(C(=O)Nc2ccc(Oc3ccc4nc(NC(=O)C5CC5)cn4c3)c(F)c2)c(=O)n1-c1ccccc1 | 4
3. FC(F)(F)c1cc(Br)cc(Nc2nccc(-c3cnn4ncccc34)n2)c1 | 8
4. CS(=O)(=O)Nc1ccc(-c2ccnc3[nH]ccc23)cc1 | 0
5. Cc1ccn2nc(-c3ccc(F)cc3)c(-c3ccncc3)c2c1.Cl | 0
6. Cc1ccc(CC(=O)N2CCc3cc(-c4cn(C)c5ncnc(N)c45)ccc32)cc1 | 9
7. CN(c1ccc2c(c1)nc(NCc1ccc(F)cc1)n2C)c1ccnc(Nc2ccc(CS(C)(=O)=O)cc2)n1.Cl | 45
8. Cc1cccc(-c2nc(Nc3ccncc3)c3sccc3n2)n1 | 21
9. c1ccc(Oc2ccc(Nc3ccnc4ccc(-c5ccccn5)cc34)cc2)cc1 | 0
10. Cn1ccc2ncnc(Oc3ccc(NC(=O)Nc4cnn(C(C)(C)C)c4)c(Cl)c3)c21 | 9
11. C[C@@H](Oc1cc(-n2cnc3ccc(-c4ccncc4)cc32)sc1C(N)=O)c1ccccc1Cl | 0
12. CCOC(=O)N1CCC(n2cnc(-c3ccc(F)cc3)c2-c2ccnc(N)n2)CC1 | 0
13. CC(C)S(=O)(=O)N1CCN(Cc2ccc3c(c2)nc(NC(=O)c2ccsc2)n3C[C@H](O)c2ccccc2)CC1 | 0
14. O=C(NOCC1CC1)c1cc(Br)c(F)c(F)c1Nc1ccc(I)cc1Cl | 20
15. CNC(=O)c1ccccc1Nc1nc(Nc2cccc(CS(C)(=O)=O)c2)ncc1C.O=CO | 0
16. COc1cccc(CNC(=O)NC2CCN(c3ccnc(Nc4cc(OC)c(OC)c(OC)c4)n3)C2)c1 (centres unmarked) | 0
17. Cl.Cl.NC[C@H](CC1CCCCC1)NC(=O)c1ccc(-c2ccnc3[nH]ccc23)s1 | 0
18. Cc1nnc(-c2ccc3occ(-c4ccc(S(C)=O)cc4)c3n2)o1 (centres unmarked) | 0
19. COc1cccc(C2=C(Nc3cccc(Cl)c3)C(=O)NC2=O)c1 | 0
20. CC(C)c1nc(-c2cccc(NS(=O)(=O)c3ccccc3)c2)c(-c2ccnc(Nc3ccc4c(c3)CN(C)CC4)n2)s1 | 0
21. CC(=O)c1c(-c2ccncc2)[nH]c(-c2ccncc2)c1C | 0
22. OCCn1cc(-c2cnc3nnn(Cc4ccc5ncccc5c4)c3n2)cn1 | 0
23. CS(=O)(=O)c1cccc(CNc2nc(Nc3ccc4c(c3)[C@@H]3C[C@@H]4CNC3=O)ncc2C(F)(F)F)c1 | 54

----------
# key: entry, value: %Inh
System: SGK
reported.conditions: concentration: 1 μM,replicates: in singlicate; n = 1
value.type: %Inh (%)

1) CCOC(=O)N1CCC(n2cnc(-c3ccc(F)cc3)c2-c2ccnc(N)n2)CC1 | 17
2) CCNCC(Cc1ccccc1)NC(=O)c1cc(Br)c(-c2ccnc3[nH]ccc23)s1.Cl.Cl (stereo not shown) | 65
3) CN(c1ccc2c(c1)nc(NCc1ccc(F)cc1)n2C)c1ccnc(Nc2ccc(CS(C)(=O)=O)cc2)n1.Cl | 17
4) O=C(NCC1CC1)c1ccc(-c2cc(C(=O)NC3CC3)ccc2F)cc1 | 7
5) CC(C)c1nc(-c2cccc(NS(=O)(=O)c3ccccc3)c2)c(-c2ccnc(Nc3ccc4c(c3)CN(C)CC4)n2)s1 | 77
6) COC(=O)c1cccc(NC(=O)NC2CCN(c3ccnc(NCc4ccc(F)cc4)n3)CC2)c1 | 0
7) CC(C)S(=O)(=O)N1CCN(Cc2ccc3c(c2)nc(NC(=O)c2ccsc2)n3C[C@H](O)c2ccccc2)CC1 | 0
8) Cc1ccc(Nc2ccnc(Nc3ccc4c(c3)CS(=O)(=O)C4)n2)cc1O.Cl | 0
9) CNC(=O)c1ccccc1Nc1nc(Nc2cccc(CS(C)(=O)=O)c2)ncc1C.O=CO | 71
10) COc1cccc(C2=C(Nc3cccc(Cl)c3)C(=O)NC2=O)c1 | 3
